Reference source for all entries: paper PMC8809517

Provide the reported pKd of each item.
# system_under_test: T1, GFP-9S library array, motif 4 ND N98Y;D124E (synthetic construct, N98Y;D124E)
# T1 chain: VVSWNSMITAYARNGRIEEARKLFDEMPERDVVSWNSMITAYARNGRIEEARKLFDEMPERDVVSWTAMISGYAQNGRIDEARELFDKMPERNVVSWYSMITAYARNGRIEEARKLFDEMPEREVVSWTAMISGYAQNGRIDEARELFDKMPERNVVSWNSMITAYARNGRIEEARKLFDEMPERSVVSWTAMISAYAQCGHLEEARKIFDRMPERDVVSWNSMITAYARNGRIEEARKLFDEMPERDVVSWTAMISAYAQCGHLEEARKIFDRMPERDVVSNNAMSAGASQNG
# protocol_summary: high-throughput RNA pulldown from lysate on Ni-NTA beads; HRP: 50 mM Tris pH 8, 150 mM NaCl, 1 mM beta-mercaptoethanol, 50 ug/ml BSA, 3 ug/ml yeast RNA, 0.5% heparin; ITC and FP: Tris pH 8, 200 mM KCl, 5% glycerol; MST: 50 mM Tris pH 8, 200 mM NaCl, 1 mM DTT, BSA, heparin, 0.05% Tween 20
# test_context: tags: N-terminal His-eGFP; label: 5' Cy5
FYI, pKd means -log10 of a concentration in mol per litre.

Lookup result for AUUACACGUGA (ssRNA) [Cy5-rpoA] ; measured pKd: 6.89

Lookup result for AUUAGACGUGA (ssRNA) [Cy5-rpoA-G] ; measured pKd: 6.77
